biological target: Protein cereblon/Zinc finger protein Helios (Homo sapiens) (UniProt Q96SW2+Q9UKS7); assay: Protac activity at CRBN/IKZF2 in human MOLM-13 cells assessed as relative ratio at 25 uM incubated for 24 hrs by Western blotting analysis relative to DMSO; assay type: cell-based
Sequence (Q96SW2 whole entry, looked up): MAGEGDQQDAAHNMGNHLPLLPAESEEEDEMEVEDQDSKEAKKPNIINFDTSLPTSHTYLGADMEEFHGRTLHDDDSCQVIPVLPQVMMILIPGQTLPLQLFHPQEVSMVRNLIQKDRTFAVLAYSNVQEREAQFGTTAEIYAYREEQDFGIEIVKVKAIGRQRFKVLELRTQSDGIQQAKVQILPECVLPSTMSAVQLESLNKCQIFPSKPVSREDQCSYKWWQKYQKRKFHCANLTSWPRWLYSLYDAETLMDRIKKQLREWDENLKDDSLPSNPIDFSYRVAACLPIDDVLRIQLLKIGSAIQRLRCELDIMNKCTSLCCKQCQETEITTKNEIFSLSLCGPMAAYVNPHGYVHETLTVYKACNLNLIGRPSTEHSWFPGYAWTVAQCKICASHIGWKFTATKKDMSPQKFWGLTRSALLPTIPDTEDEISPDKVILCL
Sequence (Q9UKS7 whole entry, looked up): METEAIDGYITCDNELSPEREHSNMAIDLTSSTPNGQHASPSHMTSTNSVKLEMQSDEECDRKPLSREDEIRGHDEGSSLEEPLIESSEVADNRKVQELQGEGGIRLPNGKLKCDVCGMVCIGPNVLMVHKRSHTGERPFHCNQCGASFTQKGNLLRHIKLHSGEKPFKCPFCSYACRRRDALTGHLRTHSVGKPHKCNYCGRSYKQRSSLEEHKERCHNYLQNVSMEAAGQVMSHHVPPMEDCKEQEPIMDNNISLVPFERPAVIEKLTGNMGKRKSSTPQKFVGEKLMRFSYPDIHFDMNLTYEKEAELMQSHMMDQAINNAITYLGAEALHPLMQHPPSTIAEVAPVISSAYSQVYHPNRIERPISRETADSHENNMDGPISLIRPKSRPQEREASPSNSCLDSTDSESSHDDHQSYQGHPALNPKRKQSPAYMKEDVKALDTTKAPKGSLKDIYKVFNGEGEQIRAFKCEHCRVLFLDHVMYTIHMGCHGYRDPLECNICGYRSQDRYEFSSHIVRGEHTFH
metric_name: Ratio

O=C1CCC(N2Cc3cc(NCc4ccc5cc(O)ccc5c4)ccc3C2=O)C(=O)N1 (centres undefined) : 0.84
O=C1CCC(N2Cc3cc(NCc4cccc(Oc5ccccc5)c4)ccc3C2=O)C(=O)N1 (centres undefined) : 0.79
COc1ccc(CNc2ccc3c(c2)CN(C2CCC(=O)NC2=O)C3=O)cc1 (centres undefined) : 0.65
O=C1CCC(N2Cc3cc(NCc4cccc5ccccc45)ccc3C2=O)C(=O)N1 (centres undefined) : 0.83

---

test: Metabolic stability in human liver microsomes assessed as half life preincubated with NADPH and UDPGA for 5 mins followed by compound addition and measured upto 60 mins by LC-MS/MS analysis; type: ADME, Microsome
Listing of recorded half-life by entry.

Example entries and their recorded answers appear below.
CC(C)Oc1ccc2cc(C(=O)Nc3ccc4c(c3)CN(C3CCC(=O)NC3=O)C4=O)ccc2c1 (stereo unspecified) : > 4.25 h
COc1ccc2cc(C(=O)Nc3ccc4c(c3)CN(C3CCC(=O)NC3=O)C4=O)cnc2c1 (stereo unspecified) : 0.338 h
O=C1CCC(N2Cc3cc(NC(=O)c4ccc5ccccc5c4)ccc3C2=O)C(=O)N1 (stereo unspecified) : > 4.25 h
CCOc1ccc2cc(C(=O)Nc3ccc4c(c3)CN(C3CCC(=O)NC3=O)C4=O)ccc2c1 (stereo unspecified) : > 4.25 h
Nc1cccc2c1CN(C1CCC(=O)NC1=O)C2=O (stereo unspecified) [LENALIDOMIDE] : > 6 h

// below: half-life requested for another compound
So for CCCCOc1ccc2cc(C(=O)Nc3ccc4c(c3)CN(C3CCC(=O)NC3=O)C4=O)ccc2c1 (stereo unspecified) , the logged half-life turned out to be > 4.25 h

---

biological target: Protein cereblon/Zinc finger protein Helios (Homo sapiens) (UniProt Q96SW2+Q9UKS7); experiment: Protac activity at CRBN/IKZF2 (unknown origin) transfected in HEK293T cells at 100 nM incubated for 24 hrs by flow cytometry analysis relative to control; format: cell-based
metric_name: Activity (%)

CC(C)Oc1ccc2cc(C(=O)Nc3ccc4c(c3)CN(C3CCC(=O)NC3=O)C4=O)ccc2c1 (configuration not stated) : 81

I = COc1cnc2cc(C(=O)Nc3ccc4c(c3)CN(C3CCC(=O)NC3=O)C4=O)ccc2c1 (configuration not stated)
II = COc1ccc2cc(C(=O)Nc3ccc4c(c3)CN(C3CCC(=O)NC3=O)C4=O)ccc2c1 (configuration not stated)
Task item: Hi there, can you help? I need to know whether I or II has lower measured Activity. Output the label that corresponds to your choice.
Reply: I
(I: 62%, II: 90%)

---

molecular target: Protein cereblon/Zinc finger protein Helios (Homo sapiens) (UniProt Q96SW2+Q9UKS7); assay: Protac activity at CRBN/IKZF2 (unknown origin) transfected in HEK293T cells at 100 nM incubated for 24 hrs by flow cytometry analysis relative to control; assay type: cell-based
metric_name: Activity (%)

Examples from the recorded data:
O=C1CCC(N2Cc3cc(NC(=O)c4cccc(C(=O)c5ccccc5)c4)ccc3C2=O)C(=O)N1 (configuration not stated) : 83
O=C1CCC(N2Cc3cc(NC(=O)C4=Cc5ccccc5OC4)ccc3C2=O)C(=O)N1 (configuration not stated) : 84
COc1cccc2c1OCC(C(=O)Nc1ccc3c(c1)CN(C1CCC(=O)NC1=O)C3=O)=C2 (configuration not stated) : 82
O=C1CCC(N2Cc3cc(NC(=O)C4=Cc5ccc(C(F)(F)F)cc5OC4)ccc3C2=O)C(=O)N1 (configuration not stated) : 70
COc1ccc2nc(C(=O)Nc3ccc4c(c3)CN(C3CCC(=O)NC3=O)C4=O)ccc2c1 (configuration not stated) : 87

1 = O=C1CCC(N2Cc3cc(NC(=O)Cc4cccc5ccccc45)ccc3C2=O)C(=O)N1 (configuration not stated)
2 = O=C1CCC(N2Cc3cc(NC(=O)C4=Cc5cc(Br)cc(Br)c5OC4)ccc3C2=O)C(=O)N1 (configuration not stated)
Task item: Rank 1 against 2 by their Activity values and give the higher one. Please identify the chosen entry by its label.
Reply: 1
(1: 93%, 2: 49%)

Origin of the recorded values: ChEMBL document CHEMBL5375992
